assay comment: Oral bioavailability in C57 mouse at 50 mg/kg
Format: ADME, organism-based
measurement conditions: in vivo
assay metric: bioavailability (%)

Per the records, this compound ( CC(C)(C)C[C@@H]1N[C@@H](C(=O)Nc2ccc(C(N)=O)cc2F)[C@H](c2cccc(Cl)c2F)[C@]12C(=O)Nc1cc(Cl)ccc12 ) has bioavailability equal to 75

Per the records, this compound ( CC(C)(C)C[C@@H]1N[C@@H](C(=O)Nc2ccc(C(N)=O)cc2)[C@H](c2cccc(Cl)c2F)[C@]12C(=O)Nc1cc(Cl)c(F)cc12 ) has bioavailability equal to 45

Per the records, this compound ( CC(C)(C)C[C@@H]1N[C@@H](C(=O)Nc2ccc(C(N)=O)cc2)[C@H](c2cccc(Cl)c2F)[C@]12C(=O)Nc1cc(Cl)ccc12 ) has bioavailability equal to 63

====

assayed target: Tumour suppressor p53/oncoprotein Mdm2 (Homo sapiens)
Sequence (P04637 whole entry): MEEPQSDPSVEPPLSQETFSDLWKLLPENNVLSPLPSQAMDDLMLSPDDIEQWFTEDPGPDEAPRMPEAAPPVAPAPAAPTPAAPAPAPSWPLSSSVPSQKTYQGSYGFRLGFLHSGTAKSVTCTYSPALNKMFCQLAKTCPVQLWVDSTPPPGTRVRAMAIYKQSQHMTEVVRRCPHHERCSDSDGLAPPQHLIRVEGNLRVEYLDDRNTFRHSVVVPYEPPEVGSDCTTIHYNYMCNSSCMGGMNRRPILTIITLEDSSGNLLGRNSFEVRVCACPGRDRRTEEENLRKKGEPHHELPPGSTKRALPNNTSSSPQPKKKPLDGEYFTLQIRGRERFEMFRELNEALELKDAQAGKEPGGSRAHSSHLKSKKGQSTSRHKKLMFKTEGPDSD
Sequence (Q00987 whole entry): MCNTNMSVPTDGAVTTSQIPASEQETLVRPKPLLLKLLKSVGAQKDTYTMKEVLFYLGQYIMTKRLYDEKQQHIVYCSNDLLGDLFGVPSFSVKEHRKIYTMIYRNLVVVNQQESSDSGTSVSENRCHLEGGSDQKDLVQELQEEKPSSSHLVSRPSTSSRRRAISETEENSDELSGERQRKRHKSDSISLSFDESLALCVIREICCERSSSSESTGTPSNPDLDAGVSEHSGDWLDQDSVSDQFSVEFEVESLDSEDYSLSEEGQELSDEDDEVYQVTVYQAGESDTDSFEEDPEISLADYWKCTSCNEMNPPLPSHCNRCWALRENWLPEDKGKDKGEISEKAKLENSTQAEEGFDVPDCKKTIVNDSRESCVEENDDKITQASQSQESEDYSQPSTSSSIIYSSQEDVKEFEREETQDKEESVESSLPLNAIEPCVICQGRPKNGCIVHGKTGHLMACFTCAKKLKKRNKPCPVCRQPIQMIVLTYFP
assay comment: Inhibition of p53-MDM2 (unknown origin) interaction using 0.02% BSA buffer after 1 hr by HTRF assay
Format: protein assay
pIC50: −log10 of the molar value.
assay metric: pIC50

Per the records, this compound ( CC(C)(C)C[C@@H]1N[C@@H](C(=O)Nc2ccc(C(N)=O)cc2F)[C@H](c2cccc(Cl)c2F)[C@]12C(=O)Nc1cc(Cl)ccc12 ) has pIC50 equal to 8.15

[a] COc1cc(C(N)=O)ccc1NC(=O)[C@@H]1N[C@@H](CC(C)(C)C)[C@@]2(C(=O)Nc3c2ccc(Cl)c3F)[C@H]1c1cccc(Cl)c1F (racemic)
[b] COc1cc(NC(=O)[C@H]2N[C@H](CC(C)(C)C)[C@]3(C(=O)Nc4cc(Cl)ccc43)[C@@H]2c2cccc(Cl)c2F)ccc1C(=O)O
[c] CC(C)(C)C[C@@H]1N[C@@H](C(=O)Nc2ccc(C(N)=O)cc2)[C@H](c2cccc(Cl)c2F)[C@]12C(=O)Nc1cc(Cl)ccc12
Request: Put the entries in order of pIC50, starting with the largest number. // respond by listing labels in the order requested
Result: c, a, b

====

Test system: SW480
assay comment: Antiproliferative activity against p53 mutant expressing human SW480 cells assessed as inhibition of cell proliferation by MTT assay
Type: functional, cell-based
assay metric: IC50 (µM)

Per the records, this molecule ( COc1cc(NC(=O)[C@@H]2N[C@@H](CC(C)(C)C)[C@@]3(C(=O)Nc4cc(Cl)ccc43)[C@H]2c2cccc(Cl)c2F)ccc1C(N)=O ) has IC50 equal to 3.96

[1] CC(C)(C)C[C@@H]1N[C@@H](C(=O)Nc2ccc(C(N)=O)cc2)[C@H](c2cccc(Cl)c2F)[C@]12C(=O)Nc1cc(Cl)ccc12
[2] COc1cc(OCCO)ccc1NC(=O)[C@@H]1N[C@@H](CC(C)(C)C)[C@@]2(C(=O)Nc3cc(Cl)ccc32)[C@H]1c1cccc(Cl)c1F
[3] COc1cc(C(=O)O)ccc1NC(=O)[C@@H]1N[C@@H](CC(C)(C)C)[C@@]2(C(=O)Nc3cc(Cl)ccc32)[C@H]1c1cccc(Cl)c1F
Request: Sort (3 molecules) by IC50: min first. // respond by listing labels in the order requested
Result: 2, 3, 1

====

Tested on: RKO
assay comment: Antiproliferative activity against wild-type p53 expressing human RKO cells assessed as inhibition of cell proliferation by MTT assay
Format: functional, cell-based
assay metric: IC50 (nM)
Answer format: numeric, nM implied, no suffix.

Example cases with answers are listed next.
Known value: RKO IC50 of the molecule CC(C)(C)C[C@@H]1N[C@@H](C(=O)Nc2ccc(C(N)=O)cc2F)[C@H](c2cccc(Cl)c2F)[C@]12C(=O)Nc1cc(Cl)ccc12 equals 220

Known value: RKO IC50 of the molecule CC(C)(C)C[C@@H]1N[C@@H](C(=O)Nc2ccc(C(N)=O)cc2)[C@H](c2cccc(Cl)c2F)[C@]12C(=O)Nc1cc(Cl)c(F)cc12 equals 430

Known value: RKO IC50 of the molecule COc1cc(OCCO)ccc1NC(=O)[C@@H]1N[C@@H](CC(C)(C)C)[C@@]2(C(=O)Nc3cc(Cl)ccc32)[C@H]1c1cccc(Cl)c1F equals 16

Known value: RKO IC50 of the molecule COc1cc(C(=O)O)ccc1NC(=O)[C@@H]1N[C@@H](CC(C)(C)C)[C@@]2(C(=O)Nc3cc(Cl)ccc32)[C@H]1c1cccc(Cl)c1F equals 20

Known value: RKO IC50 of the molecule CC(C)(C)C[C@@H]1N[C@@H](C(=O)Nc2ccc(OCCO)cc2)[C@H](c2cccc(Cl)c2F)[C@]12C(=O)Nc1cc(Cl)ccc12 equals 280

Next molecule, IC50 to be filled in.
Known value: RKO IC50 of the molecule COc1cc(NC(=O)[C@@H]2N[C@@H](CC(C)(C)C)[C@@]3(C(=O)Nc4cc(Cl)ccc43)[C@H]2c2cccc(Cl)c2F)ccc1C(=O)O equals 240
